The measured values listed here are drawn from patent US9302999B2.

Tested on: velvetleaf (Abutilon theophrasti)
Test: Test A pre-/postemergence: velvetleaf
Format: in vivo
Conditions: Postemergence, 125 g ai/ha; 0 to 100 scale, 0 is no effect, 100 is complete control
quantity name: Plant response rating, Velvetleaf

[
  {
    "structure as smiles": "Fc1ccc(-n2nc(Cc3ccnc(C(F)(F)F)c3)c(OCC(F)(F)F)n2)cc1",
    "measured number": 100
  },
  {
    "structure as smiles": "CCc1nn(-c2ccc(F)cc2)nc1Oc1ccnc(C(F)(F)F)c1",
    "measured number": 80
  },
  {
    "structure as smiles": "O=C(c1ccnc(C(F)(F)F)c1)c1nn(-c2ccc(F)cc2)nc1F",
    "measured number": 0
  },
  {
    "structure as smiles": "Cc1nn(-c2ccc(C(F)(F)F)c(F)c2)nc1Cc1ccnc(C(F)(F)F)c1",
    "measured number": 90
  },
  {
    "structure as smiles": "Cc1nn(-c2ccc(F)c(C(F)(F)F)c2)nc1Oc1ccnc(C(F)(F)F)c1",
    "measured number": 50
  },
  {
    "structure as smiles": "CCc1nn(-c2ccc(F)cc2)nc1Cc1cccc(C(F)(F)F)c1",
    "measured number": 40
  },
  {
    "structure as smiles": "CCCc1nn(-c2ccc(C(F)(F)F)c(F)c2)nc1Oc1ccnc(C(F)(F)F)c1",
    "measured number": 100
  },
  {
    "structure as smiles": "Cc1nn(-c2ccc(C(F)(F)F)cn2)nc1C(=NO)c1cccc(C(F)(F)F)c1",
    "measured number": 20
  },
  {
    "structure as smiles": "CCCc1nn(-c2ccc(F)cc2)nc1Cc1cccc(C(F)(F)F)c1",
    "measured number": 60
  },
  {
    "structure as smiles": "CC(C)c1nn(-c2ccc(F)cc2)nc1Cc1ccnc(C(F)(F)F)c1",
    "measured number": 30
  }
]

====

System: soybean (Glycine max)
Assay: Test C pre-/postemergence: soybean
Assay type: in vivo
Conditions: Postemergence, 250 g ai/ha; scale 0 to 100

[
  {
    "structure as smiles": "Cc1nn(-c2ccc(F)c(F)c2)nc1Oc1ccnc(C(F)(F)F)c1",
    "assayed system": "soybean (Glycine max)",
    "Plant response rating, Soybean": 60
  },
  {
    "structure as smiles": "CCCc1nn(-c2ccc(F)cc2)nc1Cc1ccnc(C(F)(F)F)c1",
    "assayed system": "soybean (Glycine max)",
    "Plant response rating, Soybean": 85
  },
  {
    "structure as smiles": "Fc1ccc(-n2nc(Cc3ccnc(C(F)(F)F)c3)c(OCC(F)(F)F)n2)cc1",
    "assayed system": "soybean (Glycine max)",
    "Plant response rating, Soybean": 55
  },
  {
    "structure as smiles": "Cc1nn(-c2ccc(F)cc2)nc1Cc1ccnc(C(F)(F)F)c1",
    "assayed system": "soybean (Glycine max)",
    "Plant response rating, Soybean": 35
  },
  {
    "structure as smiles": "CCc1nn(-c2ccc(F)cc2)nc1Oc1ccnc(C(F)(F)F)c1",
    "assayed system": "soybean (Glycine max)",
    "Plant response rating, Soybean": 35
  }
]

====

Test system: blackgrass (Alopecurus myosuroides)
Assay: Test C pre-/postemergence: blackgrass
Assay type: in vivo
Details: Postemergence, 250 g ai/ha; scale 0 to 100

[
  {
    "structure as smiles": "CCOc1nn(-c2ccc(F)cc2)nc1Cc1ccnc(C(F)F)c1",
    "assayed system": "blackgrass (Alopecurus myosuroides)",
    "Plant response rating, Blackgrass": 80
  },
  {
    "structure as smiles": "Cc1nn(-c2ccnc(C(F)(F)F)c2)nc1Cc1ccnc(C(F)(F)F)c1",
    "assayed system": "blackgrass (Alopecurus myosuroides)",
    "Plant response rating, Blackgrass": 60
  },
  {
    "structure as smiles": "Cc1nn(-c2ccc(F)cc2)nc1Cc1ccnc(C(F)(F)F)c1",
    "assayed system": "blackgrass (Alopecurus myosuroides)",
    "Plant response rating, Blackgrass": 80
  },
  {
    "structure as smiles": "CCCc1nn(-c2ccc(C(F)(F)F)c(F)c2)nc1Oc1ccnc(C(F)(F)F)c1",
    "assayed system": "blackgrass (Alopecurus myosuroides)",
    "Plant response rating, Blackgrass": 50
  }
]
